# Tested on: Enterococcus sp.
# experimental.details: In vitro antibacterial evaluation: minimum inhibitory concentration (MIC), broth dilution method
# Assay type: cell-based
# run.conditions: broth dilution, 5×10^5 CFU/mL, 18 hours at 35° C.
property.name: MIC Enterococccus faecalis (GC 4554) (µg/mL)
Expressed in µg/mL, but write only the number.

>  <compound>
CCC(CC)C1OCC2OC(OC3C(CO)OC(Oc4ccc(CC5NC(=O)C(C(C)c6ccccc6)NC(=O)CNC(=O)C(CO)NC(=O)C(C(O)C6CNC(=N)N6C6OC(CO)C(O)C(O)C6O)NC(=O)C(C(O)C6CNC(=N)N6)NC5=O)cc4)C(O)C3O)C(O)C(O)C2O1 (stereo not drawn) [Example 116]

>  <endpoint.result>
2

$$$$

# next compound below
Form field: reported MIC Enterococccus faecalis (GC 4554) of CCCCCC1OCC2OC(OC3C(CO)OC(Oc4ccc(CC5NC(=O)C(C(C)c6ccccc6)NC(=O)CNC(=O)C(CO)NC(=O)C(C(O)C6CNC(=N)N6C6OC(CO)C(O)C(O)C6O)NC(=O)C(C(O)C6CNC(=N)N6)NC5=O)cc4)C(O)C3O)C(O)C(O)C2O1 (stereo not drawn) [Example 108] 2

----------
# Test system: Escherichia coli
# experimental.details: In vitro antibacterial evaluation: minimum inhibitory concentration (MIC), broth dilution method
# Format: cell-based
# run.conditions: Escherichia coli (GC 4560); 18 hours at 35° C.
Readings of MIC Escherichia coli (GC 4560) for the listed compounds
// return numeric value only (unit: µg/mL, not printed)

A selection of reference data follows.
>  <compound>
CC(c1ccccc1)C1NC(=O)CNC(=O)C(CO)NC(=O)C(C(O)C2CNC(=N)N2C2OC(CO)C(O)C(O)C2O)NC(=O)C(C(O)C2CNC(=N)N2)NC(=O)C(Cc2ccc(OC3OC(CO)C(OC4OC(COCC=C(c5ccccc5)c5ccccc5)C(O)C(O)C4O)C(O)C3O)cc2)NC1=O (stereo not shown)

>  <tested.on>
Escherichia coli

>  <property.name>
MIC Escherichia coli (GC 4560)

>  <quantity.unit>
µg/mL

>  <endpoint.result>
2

$$$$
>  <compound>
N=C1NCC(C(O)C2NC(=O)C(Cc3ccc(OC4OC(CO)C(OC5OC6COC(Cc7ccccc7)OC6C(O)C5O)C(O)C4O)cc3)NC(=O)C(CC3CCCCC3)NC(=O)CNC(=O)C(CO)NC(=O)C(C(O)C3CNC(=N)N3C3OC(CO)C(O)C(O)C3O)NC2=O)N1 (stereo not shown)

>  <tested.on>
Escherichia coli

>  <property.name>
MIC Escherichia coli (GC 4560)

>  <quantity.unit>
µg/mL

>  <endpoint.result>
1

$$$$
>  <compound>
CC(c1ccccc1)C1NC(=O)CNC(=O)C(CO)NC(=O)C(C(O)C2CNC(=N)N2C2OC(CO)C(O)C(O)C2O)NC(=O)C(C(O)C2CNC(=N)N2)NC(=O)C(Cc2ccc(OC3OC(CO)C(OC4OC5COC(c6ccccc6)OC5C(O)C4O)C(O)C3O)c(I)c2)NC1=O (stereo not shown)

>  <tested.on>
Escherichia coli

>  <property.name>
MIC Escherichia coli (GC 4560)

>  <quantity.unit>
µg/mL

>  <endpoint.result>
8

$$$$
>  <compound>
COc1ccc(COCC2OC(OC3C(CO)OC(Oc4ccc(CC5NC(=O)C(C(C)c6ccccc6)NC(=O)CNC(=O)C(CO)NC(=O)C(C(O)C6CNC(=N)N6C6OC(CO)C(O)C(O)C6O)NC(=O)C(C(O)C6CNC(=N)N6)NC5=O)cc4)C(O)C3O)C(O)C(O)C2O)cc1F (stereo not shown)

>  <tested.on>
Escherichia coli

>  <property.name>
MIC Escherichia coli (GC 4560)

>  <quantity.unit>
µg/mL

>  <endpoint.result>
1

$$$$

Form field: reported MIC Escherichia coli (GC 4560) of N=C1NCC(C(O)C2NC(=O)C(Cc3ccc(OC4OC(CO)C(OC5OC6COC7(OC6C(O)C5O)C5CC6CC(C5)CC7C6)C(O)C4O)cc3)NC(=O)C(Cc3ccccc3)NC(=O)CNC(=O)C(CO)NC(=O)C(C(O)C3CNC(=N)N3C3OC(CO)C(O)C(O)C3O)NC2=O)N1 (stereo not shown) 0.5

For CC(c1ccccc1)C1NC(=O)CNC(=O)C(CO)NC(=O)C(C(O)C2CNC(=N)N2C2OC(CO)C(O)C(O)C2O)NC(=O)C(C(O)C2CNC(=N)N2)NC(=O)C(Cc2ccc(OC3OC(CO)C(OC4OC5COC6(CCCCC6(C)C)OC5C(O)C4O)C(O)C3O)cc2)NC1=O (stereo not shown) , what is its reported MIC Escherichia coli (GC 4560)? 1

For the compound shown here, CC(C)CC(=O)OC1C(O)C(OC2C(CO)OC(Oc3ccc(CC4NC(=O)C(C(C)c5ccccc5)NC(=O)CNC(=O)C(CO)NC(=O)C(C(O)C5CNC(=N)N5C5OC(CO)C(O)C(O)C5O)NC(=O)C(C(O)C5CNC(=N)N5)NC4=O)cc3)C(O)C2O)OC2COC3(OC21)C1CC2CC(C1)CC3C2 (stereo not shown) , give the reported MIC Escherichia coli (GC 4560). 8

Cited source for all entries: patent US8247211B2
